Emax at 30 µM reference
Molecular target: Human M4 (Homo sapiens)
Construct: expressed in transfected cells
Sequence (P08173 1-479): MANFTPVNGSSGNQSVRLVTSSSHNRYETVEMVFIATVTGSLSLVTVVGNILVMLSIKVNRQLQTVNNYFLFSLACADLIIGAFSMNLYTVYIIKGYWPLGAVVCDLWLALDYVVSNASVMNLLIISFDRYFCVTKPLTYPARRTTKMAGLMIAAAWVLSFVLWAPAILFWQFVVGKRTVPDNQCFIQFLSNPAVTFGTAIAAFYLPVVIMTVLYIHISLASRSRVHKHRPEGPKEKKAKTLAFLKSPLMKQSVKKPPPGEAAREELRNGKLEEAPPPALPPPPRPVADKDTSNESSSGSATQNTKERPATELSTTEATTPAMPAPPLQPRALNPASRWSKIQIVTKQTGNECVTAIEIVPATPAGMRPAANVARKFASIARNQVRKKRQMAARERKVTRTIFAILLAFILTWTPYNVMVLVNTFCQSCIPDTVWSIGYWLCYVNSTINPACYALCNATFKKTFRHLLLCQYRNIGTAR
Test: mAChR M4 cell-based functional assay (calcium flux, potentiation of EC20 acetylcholine response), hM4-Gqi5 CHO-K1 cells
Settings: CHO-K1; % ACh maximum at 30 μM; human M4; read-out: Emax
Kindly answer with a numeric value in %, unit omitted.

// known answers, use as guide
>>> quantitative_result("Cc1ccncc1-c1cnc2c(c1)CN(c1nn3cnnc3c(C)c1C)CC2 [Compound 102]")
94
>>> quantitative_result("Cc1nc(C)c(-c2cnc3c(c2)CN(c2nn4cnnc4c(C)c2C)CC3)s1 [Compound 61]")
89
>>> quantitative_result("Cc1c(N2CCc3ncc(Nc4cc(Cl)ccc4F)cc3C2)nn2cnnc2c1C [Compound 34]")
93
>>> quantitative_result("Cc1cc2nccn2nc1N1CCc2ncc(-c3cnn(CC(C)C)c3)cc2C1 [Compound 144]")
44

Using the record for Cc1c(N2CCc3ncc(Nc4c(F)cccc4F)cc3C2)nn2cnnc2c1C [Compound 47] , report its Emax at 30 µM.
80
